Assay: log P by HPLC on reversed-phase column (C 18), EEC Directive 79/831 Annex V.A8
Assay type: physicochemical
Details: log P, neutral range; HPLC on reversed-phase column (C 18), 55° C.
Method: Temperature: 55° C. […] Called log P (HCOOH) in the table. […] Called log P (neutral) in the table.
assay readout: LOGP_NEUTRAL

Answered examples (3):
| molecule | LOGP_NEUTRAL |
| --- | --- |
| CCC(=O)Nc1cc(-c2ccc(C(F)(F)F)cc2)cc(C(=O)NCc2ccc(C#N)cc2)n1 | 3.47 |
| N#Cc1ccc(CNC(=O)c2cc(-c3ccc(C(F)(F)F)cc3)cc(N(C(=O)C3CC3)C(=O)C3CC3)n2)cc1F | 4.18 |
| O=C(NC1CC1)c1cc(-c2ccc(C(F)(F)F)cc2)cc(NC(=O)C2CC2)n1 | 3.37 |

A: N#Cc1ccc(CNC(=O)c2cc(-c3ccc(S(=O)(=O)C(F)(F)F)cc3)cc(NC(=O)C3CC3)n2)cn1
B: O=C(NC1CCC(C(F)(F)F)CC1)c1cc(-c2ccc(OC(F)(F)F)cc2)cc(NC(=O)C2CC2)n1 (stereo not drawn)
Exam item: // max by LOGP_NEUTRAL over [ A , B ] Lab note: record the label of whichever item you select.
Marked response: B

====

experiment: log P by HPLC on reversed-phase column (C 18), EEC Directive 79/831 Annex V.A8; format: physicochemical; conditions: reversed-phase HPLC column (C 18), pH 7.8, LC-MS neutral range, pH 7.8, ammonium hydrogencarbonate/acetonitrile, 55° C.; read-out: log P (neutral)
assay readout: chromatographic logP

Answered examples (5):
| molecule | result |
| --- | --- |
| N#Cc1ccc(CNC(=O)c2cc(B(O)O)cc(NC(=O)C3CC3)n2)cc1 [Example X-1b] | 1.25 |
| CN(C(=O)C1CC1)c1cc(-c2ccc(OC(F)(F)F)cc2)cc(C(=O)NCc2ccc(C#N)cc2)n1 [Example I-215] | 3.84 |
| N#Cc1ccc(CNC(=O)c2cc(-n3ccc(C(F)(F)C(F)(F)F)n3)cc(NC(=O)C3CC3)n2)cc1 [Example I-188] | 3.57 |
| N#Cc1ccc(CNC(=O)c2cc(-c3ccc(C(F)(F)F)cc3)cc(N)n2)cc1F [XX-3] | 3.19 |
| COC(=O)N(C(=O)C1CC1)c1cc(-c2ccc(OC(F)(F)F)cc2)cc(C(=O)NCc2ccc(C#N)cc2)n1 [Example I-233] | 3.91 |

A: C=Cc1cc(-c2ccc(OC(F)(F)F)cc2)cc(Cl)n1 [XV-1]
B: CN(C(=O)c1cc(-c2ccc(C(F)(F)F)cc2)cc(N)n1)C1CC1 [XX-2]
Exam item: // max by chromatographic logP over [ A , B ] Lab note: record the label of whichever item you select.
Marked response: A

====

assay: log P by HPLC on reversed-phase column (C 18), EEC Directive 79/831 Annex V.A8; assay type: physicochemical; settings: log P (HCOOH), acidic range pH 2.7, 0.1% aqueous formic acid and acetonitrile; reversed-phase column (C 18), 55° C.
assay readout: LOGP_HCOOH

| compound | LOGP_HCOOH |
| --- | --- |
| O=C(NC1CCC1)c1cc(-c2ccc(C(F)(F)F)cc2)cc(NC(=O)C2CC2)n1 | 3.88 |
| N#CCCCONC(=O)c1cc(-c2ccc(OC(F)(F)F)cc2)cc(NC(=O)C2CC2)n1 | 3.13 |
| O=C(NC1CC1)c1cc(-c2ccc(OC(F)(F)F)cc2)cc(NC(=O)C2CC2)n1 | 3.51 |
| N#Cc1ccc(CNC(=O)c2cc(-c3ccc(C(F)(F)F)cc3)cc(NC(=O)C3CC3)n2)c(F)c1 | 3.90 |
| O=C(NCc1ccc([N+](=O)[O-])cc1F)c1cc(-c2ccc(OC(F)(F)F)cc2)cc(NC(=O)C2CC2)n1 | 4.29 |

A: N#Cc1ccc(CNC(=O)c2cc(-c3ccc(OC(F)(F)F)cc3)cc(NC(=O)CC(F)(F)F)n2)cc1
B: CC(C)NC(=O)c1cc(-c2ccc(C(F)(F)F)cc2)cc(NC(=O)C2CC2)n1
Exam item: // max by LOGP_HCOOH over [ A , B ] Lab note: record the label of whichever item you select.
Marked response: A

====

# maps each entry to its efficacy (beetle larvae killed)
tested on: Phaedon cochleariae; experiment: Phaedon cochleariae spray test; format: in vivo; settings: application rate 500 g/ha, after 7 days, Chinese cabbage leaf discs
Give the number; % is assumed, so skip it.

Answered examples (3):
| record smiles | efficacy (beetle larvae killed), % |
| --- | --- |
| N#Cc1ccc(CNC(=O)c2cc(-c3ccc(C(F)(F)F)cc3)cc(NC(=O)C3CCC3)n2)cc1 | 83 |
| N#Cc1ccc(CNC(=O)c2cc(-c3ccc(CC(F)(F)F)cc3)cc(NC(=O)C3CC3)n2)cc1 | 100 |
| N#Cc1ccc(NC(=O)c2cc(-c3ccc(Cl)cc3)cc(NC(=O)C3CC3)n2)cc1 | 100 |

We now examine a further compound.
Please fill in: efficacy (beetle larvae killed) reported for CC(C)(C#N)NC(=O)c1cc(-c2ccc(OC(F)(F)F)cc2)cc(NC(=O)C2CC2)n1 = 83

====

assay: log P by HPLC on reversed-phase column (C 18), EEC Directive 79/831 Annex V.A8; assay type: physicochemical; details: log P (neutral), HPLC reversed-phase column (C 18), 55° C.
assay readout: LOGP_NEUTRAL

| molecule | LOGP_NEUTRAL |
| --- | --- |
| N#Cc1ccc(ONC(=O)c2cc(-c3ccc(OC(F)(F)F)cc3)cc(NC(=O)C3CC3)n2)cc1 [Example I-239] | 3.13 |
| O=C(NCCC(F)(F)F)c1cc(-c2ccc(C(F)(F)C(F)(F)F)c(F)c2)cc(NC(=O)C2CC2)n1 [Example I-246] | 4.32 |
| N#Cc1ccc(CNC(=O)c2cc(-c3ccc(OC(F)(F)F)cc3)cc(NC(=O)C3CC3)n2)s1 [Example I-255] | 3.88 |
| N#Cc1ccc(CNC(=O)c2cc(-c3cc(F)c(C(F)(F)C(F)(F)F)c(Cl)c3)cc(NC(=O)C3CC3)n2)cc1 [Example I-278] | 4.52 |
| N#Cc1ccc(CNC(=O)c2cc(-c3ccc(C(F)(F)C(F)(F)F)c(F)c3)cc(NC(=O)C3CC3)n2)c(F)c1 [Example I-251] | 4.38 |
| CC(C)(CS(C)(=O)=O)NC(=O)c1cc(-c2ccc(C(F)(F)C(F)(F)F)c(F)c2)cc(NC(=O)C2CC2)n1 [Example I-253] | 3.91 |
| N#Cc1ccc(NC(=N)c2cc(-c3ccc(OC(F)(F)F)cc3)cc(NC(=O)C3CC3)n2)cc1 [Example I-261] | 4.19 |
| O=C(NC(=O)c1cc(-c2ccc(C(F)(F)C(F)(F)F)c(F)c2)cc(NC(=O)C2CC2)n1)c1ccc([N+](=O)[O-])cc1 [Example I-263] | 4.54 |
| N#Cc1ccc(/C=N/NC(=O)c2cc(-c3ccc(OC(F)(F)F)cc3)cc(NC(=O)C3CC3)n2)cc1 [Example I-252] | 3.83 |
| CCONC(=O)c1cc(-c2ccc(OC(F)(F)F)cc2)cc(NC(=O)C2CC2)n1 [Example I-235] | 3.14 |
| O=C(NCc1ccc(N2CCCC2=O)cc1)c1cc(-c2ccc(OC(F)(F)F)cc2)cc(NC(=O)C2CC2)n1 [Example I-259] | 3.58 |
| N#Cc1ccc(CNC(=O)c2cc(-c3ccc(OC(F)(F)C(F)C(F)(F)F)cc3)cc(NC(=O)C3CC3)n2)cc1 (centres unmarked) [Example I-254] | 3.98 |
| N#Cc1ccc(CNC(=O)c2cc(-c3ccc(OC(F)(F)F)cc3)cc(NC(=O)CC(F)(F)F)n2)cc1 [Example I-241] | 3.96 |
| CC(C)ONC(=O)c1cc(-c2ccc(OC(F)(F)F)cc2)cc(NC(=O)C2CC2)n1 [Example I-237] | 3.45 |
| N#Cc1ccc(CNC(=O)c2cc(-c3ccc(OC(F)(F)F)cc3)cc(NC(=O)C3(C(F)(F)F)CC3)n2)cc1 [Example I-242] | 4.63 |
| O=C(NCc1ccc([N+](=O)[O-])s1)c1cc(-c2ccc(OC(F)(F)F)cc2)cc(NC(=O)C2CC2)n1 [Example I-240] | 4.04 |
| COC(=O)N(C(=O)C1CC1)c1cc(-c2ccc(OC(F)(F)F)cc2)cc(C(=O)NCc2ccc(C#N)cc2)n1 [Example I-233] | 3.91 |
| O=C(NOCC1CC1)c1cc(-c2ccc(OC(F)(F)F)cc2)cc(NC(=O)C2CC2)n1 [Example I-236] | 3.50 |
| COC1(NC(=O)c2cc(-c3ccc(C(F)(F)C(F)(F)F)c(F)c3)cc(NC(=O)C3CC3)n2)CC1 [Example I-244] | 4.08 |
| N#Cc1cc(F)c(CNC(=O)c2cc(-c3ccc(C(F)(F)C(F)(F)F)c(F)c3)cc(NC(=O)C3CC3)n2)cc1F [Example I-249] | 4.51 |
| N#Cc1ccc(CNC(=O)c2cc(-c3ccc(Br)c(F)c3)cc(NC(=O)C3CC3)n2)cc1 [Example I-262] | 3.73 |
| N#Cc1ccc(CNC(=O)c2cc(-c3ccc(OC(F)(F)F)cc3)cc(NC(=O)Cc3ccc(C(F)(F)F)cc3)n2)cc1 [Example I-260] | 4.66 |
| CC(NC(=O)c1cc(-c2ccc(C(F)(F)C(F)(F)F)c(F)c2)cc(NC(=O)C2CC2)n1)c1ccc(C#N)cc1 (centres unmarked) [Example I-247] | 4.49 |
| N#Cc1ccc(CNC(=N)c2cc(-c3ccc(OC(F)(F)F)cc3)cc(NC(=O)C3CC3)n2)cc1 [Example I-258] | 4.24 |
| CONC(=O)c1cc(-c2ccc(OC(F)(F)F)cc2)cc(NC(=O)C2CC2)n1 [Example I-234] | 2.89 |
| N#Cc1ccc(CNC(=O)c2cc(-c3ccc(OC(F)(F)F)cc3)cc(NC(=O)c3ccc(Cl)nc3)n2)cc1 [Example I-256] | 4.20 |
| O=C(NC(=O)C1CC1)c1cc(-c2ccc(C(F)(F)C(F)(F)F)c(F)c2)cc(NC(=O)C2CC2)n1 [Example I-264] | 4.53 |
| N#Cc1c(F)cc(CNC(=O)c2cc(-c3ccc(C(F)(F)C(F)(F)F)c(F)c3)cc(NC(=O)C3CC3)n2)cc1F [Example I-250] | 4.50 |
| O=C(NCc1ccncc1)c1cc(-c2ccc(C(F)(F)C(F)(F)F)c(F)c2)cc(NC(=O)C2CC2)n1 [Example I-277] | 3.33 |
